The origin of these recorded values is patent US20250270328A1.

- study-system: T1, human KLRB1 protein extracellular domain (ECD) (human, UniProt Q12918 67-225)
- T1 construct: range 67-225; The ELISA and SPR text says only 'human KLRB1 ECD'; also called human KLRB1 ECD; CD161
- T1 sequence (looked up): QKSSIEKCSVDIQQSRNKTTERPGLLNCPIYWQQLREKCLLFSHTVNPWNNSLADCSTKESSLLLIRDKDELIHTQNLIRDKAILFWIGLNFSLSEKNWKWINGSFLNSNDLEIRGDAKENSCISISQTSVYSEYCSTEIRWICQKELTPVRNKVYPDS
- protocol-details: SPR, human KLRB1 ECD; format not stated
parameter: Kd (nM)
Give a bare numeral; the unit nM is implied.

### Prompt GET /values?readout=Kd&item= 10A3D6C109Chum2.3 (antibody, V domains shown, Humanized variant of 10A3D6 made by CDR grafting) VH: QVQLVQSGAEVKKPGASVKVSCKASGYSFTGYTMNWVRQAPGQNLEWIGLINPNTGGTYYNQKFKDRVTLTVDTSISTAYMELSRLRSDDTAVYYCARLGDNYRGYFDCWGQGTTVTVSS VL: DIQLTQSPSFLSASVGDRVTITCKASQDVGTAVVWYQQTPGKAPKLLIDWASIRHTGVPSRFSGSGSGTEFTLTISSLQPEDFADYFCQQYSTYLYTFGGGTKLEIK
### Response 0.0985

### Prompt Using the record for 10A3D6C109Chum1.5 (antibody, V domains shown, Humanized variant of 10A3D6 made by CDR grafting) VH: QVQLVQSGAEVKKPGASVKVSCKASGYSFTGYTMNWVRQAPGQGLEWMGLINPNTGGTYYNQKFKDRVTMTRDTSISTAYMELSRLRSDDTAVYYCARLGDNYRGYFDCWGQGTTVTVSS VL: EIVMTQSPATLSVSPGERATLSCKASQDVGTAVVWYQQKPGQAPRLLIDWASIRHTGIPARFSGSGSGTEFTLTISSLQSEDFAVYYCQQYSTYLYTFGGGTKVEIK , report its Kd.
### Response 0.0881

### Prompt Returns the measured Kd for the input binder. Input: 10A3D6C109Chum4.1 (antibody, V domains shown, Humanized variant of 10A3D6 made by CDR grafting) VH: QVQLVQSGAEVKKPGASVKVSCKASGYSFTGYTMNWVRQAHGQNLEWIGLINPNTGGTYYNQKFKDRATLTVDTSISTAYMELSRLRSDDTAVYYCARLGDNYRGYFDCWGQGTTVTVSS VL: DIQLTQSPSFLSASVGDRVTITCKASQDVGTAVVWYQQKPGKAPKLLIYWASIRHTGVPSRFSGSGSGTEFTLTISSLQPEDFATYYCQQYSTYLYTFGGGTKLEIK
### Response 21.7
